tested_target: human GLP-1 receptor (human, UniProt P43220 24-463)
assay_comment: cell-based or functional assay
So I've got a bunch of binders here, and I need their hGLP1R GTPgS Rel EC50 values.
One number for each entry, in nM.

- binder: "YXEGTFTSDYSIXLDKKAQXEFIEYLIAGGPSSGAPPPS (not fully specified; Aib2, αMeL13, K17 conjugated to (2-[2-(2-Amino-ethoxy)-ethoxy]-acetyl)-(γ-Glu)-CO-(CH2)18-CO2H, Aib20, C-terminal amide (NH2)) [Example 339]"
  property_label: "hGLP1R GTPgS Rel EC50"
  units_of_measure: "nM"
  measured_result: 0.326
- binder: "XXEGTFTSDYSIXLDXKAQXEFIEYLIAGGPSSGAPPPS (D-Tyr1, Aib2, αMeL13, Orn16, K17 conjugated to (2-[2-(2-Amino-ethoxy)-ethoxy]-acetyl)-(γ-Glu)-CO-(CH2)18-CO2H, Aib20, C-terminal amide (NH2)) [Example 371]"
  property_label: "hGLP1R GTPgS Rel EC50"
  units_of_measure: "nM"
  measured_result: 0.27
- binder: "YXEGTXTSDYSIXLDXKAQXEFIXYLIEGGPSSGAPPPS (Aib2, αMeF(2F)6, αMeL13, Orn16, K17 conjugated to (2-[2-(2-Amino-ethoxy)-ethoxy]-acetyl)2-(γ-Glu)-CO-(CH2)16-CO2H, Aib20, D-Glu24, C-terminal amide (NH2)) [Example 2]"
  property_label: "hGLP1R GTPgS Rel EC50"
  units_of_measure: "nM"
  measured_result: 0.642
- binder: "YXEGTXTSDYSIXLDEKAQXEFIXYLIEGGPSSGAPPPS (Aib2, αMeF(2F)6, αMeL13, K17 conjugated to (2-[2-(2-Amino-ethoxy)-ethoxy]-acetyl)2-(γ-Glu)-CO-(CH2)18-CO2H, Aib20, D-Glu24, C-terminal amide (NH2)) [Example 1]"
  property_label: "hGLP1R GTPgS Rel EC50"
  units_of_measure: "nM"
  measured_result: 0.235
- binder: "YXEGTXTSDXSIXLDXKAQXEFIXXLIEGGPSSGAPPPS (Aib2, αMeF(2F)6, 4Pal10, αMeL13, Orn16, K17 conjugated to (2-[2-(2-Amino-ethoxy)-ethoxy]-acetyl)2-(γ-Glu)-CO-(CH2)16-CO2H, Aib20, D-Glu24, αMeY25, C-terminal amide (NH2)) [Example 4]"
  property_label: "hGLP1R GTPgS Rel EC50"
  units_of_measure: "nM"
  measured_result: 0.245

With those in mind, consider the next binder.
Record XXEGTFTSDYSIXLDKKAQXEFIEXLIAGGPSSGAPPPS (D-Tyr1, Aib2, αMeL13, K17 conjugated to (2-[2-(2-Amino-ethoxy)-ethoxy]-acetyl)-(γ-Glu)-CO-(CH2)18-CO2H, Aib20, αMeY25, C-terminal amide (NH2)) [Example 372] . Reported hGLP1R GTPgS Rel EC50: 0.379
